- study_target: JAK3 (Homo sapiens (Human), UniProt P52333)
- Sequence (P52333 795-1124): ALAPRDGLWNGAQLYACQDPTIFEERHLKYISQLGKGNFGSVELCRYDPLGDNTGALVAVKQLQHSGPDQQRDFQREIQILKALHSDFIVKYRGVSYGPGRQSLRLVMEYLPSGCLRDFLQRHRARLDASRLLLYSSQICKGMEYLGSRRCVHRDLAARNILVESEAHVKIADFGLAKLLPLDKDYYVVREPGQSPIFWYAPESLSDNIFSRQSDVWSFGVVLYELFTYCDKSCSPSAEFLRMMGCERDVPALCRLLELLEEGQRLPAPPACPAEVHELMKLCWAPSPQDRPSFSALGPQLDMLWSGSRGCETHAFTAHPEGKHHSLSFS
- protocol_description: In vitro JAK kinase assay (TR-FRET), JAK3
- measurement_conditions: catalytic domain aa 795-1124, GST-fusion; ATP 0.6 μM; peptide 140 nM; 30 minutes at room temperature
Answer each item with its documented IC50.
Give bare numbers, in nM.

Requested read-out: IC50. Entry: `CCOC(=O)C1(C)CCN(c2nc(-c3cnn4ccccc34)nc(N[C@@H]3CCCN(C(=O)CO)C3)c2F)CC1`
3

Requested read-out: IC50. Entry: `Cc1cc(-c2nc(-c3cnn4ccccc34)nc(N(C)[C@@H]3CCCN(C(=O)CC#N)C3)c2F)ccn1`
11

// for each compound below, give its IC50
1. N#CC[C@H]1CC[C@H](Nc2nc(-c3cnn4ccccc34)nc(OC[C@H](O)CO)c2F)CC1
2. N#CCC(=O)N1CCC[C@@H](Nc2nc(-c3cnn4ccccc34)nc(-c3cncc(CO)c3)c2F)C1
3. CCOC(=O)c1nc(-c2cnn3ccccc23)nc(N[C@@H]2CCCN(C(=O)CO)C2)c1F

[2, 3, 4]

// for each compound below, give its IC50
1. O=C(CO)N1CCC[C@@H](Oc2nc(-c3cnn4ccccc34)nc(OCCO)c2F)C1
2. O=C(CO)N1CCC[C@@H](Oc2nc(-c3cnn4ccccc34)nc(N3CCC(O)CC3)c2F)C1
3. COC[C@@H](C)Oc1nc(-c2cnn3ccccc23)nc(N[C@@H]2CCCN(C(=O)CO)C2)c1F

1: 9; 2: 26; 3: 16

* * *

- study_target: JAK1 (Homo sapiens (Human), UniProt P23458)
- Sequence (P23458 850-1154): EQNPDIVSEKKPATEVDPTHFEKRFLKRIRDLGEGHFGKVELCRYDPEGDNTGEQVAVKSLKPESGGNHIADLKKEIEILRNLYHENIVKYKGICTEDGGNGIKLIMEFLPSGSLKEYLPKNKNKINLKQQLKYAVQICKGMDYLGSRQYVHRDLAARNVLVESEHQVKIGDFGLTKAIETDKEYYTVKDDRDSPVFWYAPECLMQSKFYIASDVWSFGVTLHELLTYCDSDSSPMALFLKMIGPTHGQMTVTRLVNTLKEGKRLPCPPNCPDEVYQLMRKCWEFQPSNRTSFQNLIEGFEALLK
- protocol_description: In vitro JAK kinase assay (TR-FRET), JAK1
- measurement_conditions: catalytic domain aa 850-1154, GST-fusion; ATP 3 μM; peptide 60 nM; 30 minutes at room temperature
observed_property: IC50 (nM)
Numbers only, in nM.

Some entries whose results are on file:
Requested read-out: IC50. Entry: `N#CC[C@H]1CC[C@H](Nc2nc(-c3cnn4ccccc34)nc(OC[C@H](O)CO)c2F)CC1`
10

Requested read-out: IC50. Entry: `COCCOc1nc(-c2cnn3ccccc23)nc(N[C@@H]2CCCN(C(=O)CO)C2)c1C`
19

Requested read-out: IC50. Entry: `O=C(CO)N1CCC[C@@H](Nc2nc(-c3cnn4ccccc34)nc(-c3ccc(CO)nc3)c2F)C1`
2

Requested read-out: IC50. Entry: `Cc1ccc(-c2cc(N[C@@H]3CCCN(C(=O)CO)C3)nc(-c3cnn4ccccc34)n2)cn1`
2

Requested read-out: IC50. Entry: `Cc1cc(-c2nc(-c3cnn4ccccc34)nc(O[C@@H]3CCCN(C(=O)CO)C3)c2F)ccn1`
35

// for each compound below, give its IC50
1. O=C(CO)N1CCC[C@@H](Nc2nc(-c3cnn4ccccc34)nc(OCC(F)F)c2F)C1
2. O=C(CO)N1CCC[C@@H](Nc2nc(-c3cnn4ccccc34)nc(O)c2F)C1
3. O=C(CO)N1CCC[C@@H](Nc2nc(-c3cnn4ccccc34)nc(N3CCC(O)CC3)c2F)C1

1: 15; 2: 4; 3: 7

* * *

- study_target: JAK1 (Homo sapiens (Human), UniProt P23458)
- protocol_description: In vitro JAK kinase assay (TR-FRET), JAK1
- measurement_conditions: catalytic domain aa 850-1154, GST-fusion; ATP 3 μM; peptide 60 nM; 30 minutes at room temperature
observed_property: log10 of IC50 (log10 of the value in µM)
In plain terms, each number is the log10 of measured IC50 in µM.

Some entries whose results are on file:
Requested read-out: log10 of IC50. Entry: `O=C(CO)N1CCC[C@@H](Nc2nc(-c3cnn4ccccc34)nc(OCC(F)(F)F)c2F)C1`
-1.46

Requested read-out: log10 of IC50. Entry: `Cc1cc(-c2nc(-c3cnn4ccccc34)nc(N[C@@H]3CCCN(C(=O)CC#N)C3)c2F)cc(C)n1`
-2.00

Requested read-out: log10 of IC50. Entry: `N#CC[C@H]1CC[C@H](Nc2nc(-c3cnn4ccccc34)nc(OCCO)c2F)CC1`
-2.05

Requested read-out: log10 of IC50. Entry: `COc1ccc(-c2nc(-c3cnn4ccccc34)nc(N[C@@H]3CCCN(C(=O)CC#N)C3)c2F)cn1`
-2.70

Requested read-out: log10 of IC50. Entry: `O=C(CO)N1CCC[C@@H](Nc2nc(-c3cnn4ccccc34)nc(-c3cncc(CO)c3)c2F)C1`
-1.85

// for each compound below, give its log10 of IC50
1. C[C@H](Nc1nc(-c2cnn3ccccc23)nc(OCCO)c1F)c1ncc(F)cn1
2. COc1nc(-c2cnn3ccccc23)nc(O[C@@H]2CCCN(C(=O)CO)C2)c1F
3. CCCCOc1nc(-c2cnn3ccccc23)nc(N[C@@H]2CCCN(C(=O)CC#N)C2)c1F

-2.40
-0.90
-1.89

Data origin, for the record: patent US10759793B2
